The measurements presented in this section are drawn from paper PMC5049494.

test system: T. cruzi, strain Tulahuen C4 amastigotes; assay: In vitro activity against T. cruzi; assay type: cell-based; details: Trypanosoma cruzi; T. cruzi Tulahuen C4 amastigotes; means of 2 to 3 measurements, SD < 5%; read-out: T. c. IC50
observation_type: IC50 (µM)
Quick reminder: number only, in µM, skip the unit.

Query: IC50; subject: O=C(CCn1cnc([N+](=O)[O-])n1)Nc1cccc(OCc2ccccc2)c1
0.046

Query: IC50; subject: O=C(CCn1cnc([N+](=O)[O-])n1)Nc1cc(-c2ccc(F)cc2)on1
0.364

Query: IC50; subject: O=C(Cn1cnc([N+](=O)[O-])n1)Nc1cc(-c2ccc(Cl)cc2)no1
1.53

Query: IC50; subject: CN(C(=O)Cn1ccnc1[N+](=O)[O-])c1ccc(C(F)(F)F)cc1
49.4

----------
For each of the compounds below, state its IC50.
system: T. cruzi, strain Tulahuen C4 amastigotes; assay: In vitro activity against T. cruzi; type: cell-based; details: Trypanosoma cruzi; T. cruzi Tulahuen C4 amastigotes; means of 2 to 3 measurements, SD < 5%; read-out: T. c. IC50
Quick reminder: number only, in µM, skip the unit.

Query: IC50; subject: O=C(CCn1cnc([N+](=O)[O-])n1)Nc1ccc(Oc2ccccc2)cc1
0.079

Query: IC50; subject: N#Cc1ccc(-c2ccc(NC(=O)CCn3cnc([N+](=O)[O-])n3)cc2)cc1
0.094

Query: IC50; subject: CN(C(=O)Cn1cnc([N+](=O)[O-])n1)c1ccc(C(F)(F)F)cc1
1.54

Query: IC50; subject: O=C(CCn1cnc([N+](=O)[O-])n1)Nc1ccc(Oc2ccc(F)cc2)cc1
0.04

----------
test system: bloodstream form T.b. brucei wild type; experiment: T. brucei antiproliferating assay, wild type; type: cell-based; conditions: Trypanosoma brucei, read-out: IC50 value T.b. brucei Wild type, bloodstream form; means from 4 experiments ± SD
For each of the compounds below, state its log10 of IC50.
Short version: log10 scale, IC50, µM.

Query: log10 of IC50; subject: O=C(CCn1cnc([N+](=O)[O-])n1)Nc1cc(-c2ccc(F)cc2)on1
-0.12

Query: log10 of IC50; subject: O=C(CCn1cnc([N+](=O)[O-])n1)Nc1cccc(OCc2ccccc2)c1
0.63

Query: log10 of IC50; subject: O=C(CCn1cnc([N+](=O)[O-])n1)Nc1ccc(Oc2ccccc2)cc1
-0.85

Query: log10 of IC50; subject: O=C(Cn1cnc([N+](=O)[O-])n1)Nc1cc(-c2ccc(F)cc2)on1
1.42

Query: log10 of IC50; subject: O=C(CCn1cnc([N+](=O)[O-])n1)Nc1cc(-c2ccc(Cl)cc2)no1
-0.57

Query: log10 of IC50; subject: O=C(CCn1cnc([N+](=O)[O-])n1)Nc1cccc(-c2ccccc2)c1
0.82

Query: log10 of IC50; subject: O=C(Cn1cnc([N+](=O)[O-])n1)Nc1cc(-c2ccc(Cl)cc2)no1
0.94

Query: log10 of IC50; subject: N#Cc1ccc(-c2ccc(NC(=O)CCn3cnc([N+](=O)[O-])n3)cc2)cc1
-0.92

----------
test: Cytotoxicity in the host L6 cells; assay type: cell-based, rat; conditions: rat, L6 cells (rat skeletal myoblasts); cytotoxicity in host L6 cells; read-out: Cyt. L6 IC50
Assign labels as follows, please: y for IC50 below 100 µM; n for IC50 equal to or exceeding 100 µM.

Confirm or reject: IC50 of O=C(Cn1cnc([N+](=O)[O-])n1)Nc1cc(-c2ccc(F)cc2)on1 [Compound 13] lies strictly below 100 µM
n

Confirm or reject: IC50 of O=C(CCn1cnc([N+](=O)[O-])n1)Nc1cccc(OCc2ccccc2)c1 [Compound 11] lies strictly below 100 µM
y

Confirm or reject: IC50 of O=C(CCn1cnc([N+](=O)[O-])n1)Nc1cc(-c2ccc(Cl)cc2)no1 [Compound 14] lies strictly below 100 µM
n

Confirm or reject: IC50 of CN(C(=O)Cn1ccnc1[N+](=O)[O-])c1ccc(C(F)(F)F)cc1 [Compound 3] lies strictly below 100 µM
n

Confirm or reject: IC50 of O=C(CCn1cnc([N+](=O)[O-])n1)Nc1cc(-c2ccc(F)cc2)on1 [Compound 12] lies strictly below 100 µM
n

Confirm or reject: IC50 of O=C(CCn1cnc([N+](=O)[O-])n1)Nc1cccc(-c2ccccc2)c1 [Compound 10] lies strictly below 100 µM
y

Confirm or reject: IC50 of O=C(CCn1cnc([N+](=O)[O-])n1)Nc1ccc(Oc2ccc(Cl)cc2)cc1 [Compound 6] lies strictly below 100 µM
y

Confirm or reject: IC50 of O=C(Cn1cnc([N+](=O)[O-])n1)Nc1cc(-c2ccc(Cl)cc2)no1 [Compound 15] lies strictly below 100 µM
n
